Tested on: CDKL3
recorded_conditions: concentration: 1 μM, replicates: in singlicate; n = 1;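 also: KINOMEscan kinase panel screen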

molecule	%Inh
CCCCc1nn2ncccc2c1-c1ccnc(Nc2ccc(N3CCN(C)CC3)cc2)n1 [GW684941]	66%
Cc1ccc(C(=O)N2CC[C@@H](O)C2)cc1-n1c(C)cc(OCc2ccc(F)cc2F)c(Br)c1=O	1%
Nc1n[nH]c2cnc(-c3ccccc3)cc12 [SB-642124]	0%
CN(c1ccc(NC(=O)Nc2cc(C(F)(F)F)ccc2F)cc1)c1ccnc(Nc2ccc(S(N)(=O)=O)cc2)n1 [GW809893]	99.4%

###

System: MLCK
Construct: gene MYLK3
recorded_conditions: concentration: 1 μM, replicates: in singlicate; n = 1

molecular_string	unit_name	%Inh
C[C@@H]1CC[C@@H](C(=O)Nc2ccccc2)CN1c1cc(-c2ccc3c(N)n[nH]c3c2)nc(N)n1	%	16
COCCOCCOc1cc2ncc3c4ccc(C#N)cc4[nH]c3c2cc1OC	%	95.8
Nc1ncc(-c2ccc3nccc(-c4ccncc4)c3c2)cc1S(=O)(=O)N1CCOCC1	%	0
Cn1cc(-c2ccc3c(c2)CCN3C(=O)Cc2cccc(F)c2)c2c(N)ncnc21	%	16
CCn1c(-c2nonc2N)nc2c(C#CC(C)(C)O)nc(OC[C@H](N)c3ccccc3)cc21	%	34
COc1cc2c(cc1OCCN1CCNCC1)ncc1c3ccc(C#N)cc3[nH]c21	%	97.5
O=C(Nc1n[nH]c2cc(-c3ccoc3)ccc12)C1CC1	%	34
COc1cccc(C(=O)Nc2cccc(Oc3ccc4nc(NC(=O)C5CC5)cn4n3)c2)c1	%	0

###

Test system: AKT2
recorded_conditions: concentration: 1 μM, replicates: in singlicate; n = 1
quantity: %Inh (%)

compound	test_result
Cn1cc(-c2[nH]c3cc(NC(=O)[C@H](N)C4CCCCC4)cc4c3c2C=NNC4=O)cn1	45
CC(C)c1nc(-c2cccc(NS(=O)(=O)c3c(F)cccc3F)c2F)c(-c2ccnc(Nc3ccc(N4CCOCC4)nc3)n2)s1 [GSK2008607]	0
c1ccc(-c2cnc3nccnn23)cc1 [AH20685]	0
Nc1ncc(-c2cccnc2)c2scc(-c3ccc4c(c3)CCN4C(=O)Cc3ccccc3)c12 [GSK683281]	21
COc1cccc(C2=C(Nc3ccc(Cl)c(C(=O)O)c3)C(=O)NC2=O)c1 [SB-390769]	0
COc1ccc(CNC(=O)NC2CCN(c3ccnc(Nc4ccc(F)cc4)n3)CC2)cc1 [GSK1379788]	0
CSc1cccc2c(-c3ccncn3)c(-c3ccc(F)cc3)nn12 [GW514786]	0
CC(=O)N1CCN(c2ccc(Nc3nccc(-c4sc(C(C)C)nc4-c4cccc(NS(=O)(=O)c5cccc(Cl)c5)c4)n3)cn2)CC1 [GSK1660437]	5
CCn1c(-c2nonc2N)nc2c(C#CC(C)(C)O)nc(OC[C@H](N)c3ccccc3)cc21 [GSK943949]	98.8
Cc1cccc(Nc2nc(N[C@H]3CCNC3)ncc2C(N)=O)c1.Cl [GSK2197149]	7
COc1ccc(Nc2nccc(N3CCC(NC(=O)Nc4cccc(OC)c4)C3)n2)cc1 (stereo not shown) [GSK1379742]	0
O=C(Nc1ccccc1F)NC1CCN(c2ccnc(Nc3ccc(F)cc3)n2)CC1 [GSK1379800]	11
O=C(O)C(F)(F)F.O=C(O)C(F)(F)F.O=c1[nH]ccc2nc(N[C@@H]3CCCNC3)nc(Nc3ccc(S(=O)(=O)N4CCOCC4)cc3)c12 [GSK2177277]	0
NCCCC(NC(=O)c1cc(Br)c(-c2ccnc3[nH]ccc23)s1)c1ccccc1.O=C(O)C(F)(F)F.O=C(O)C(F)(F)F (stereo not shown) [GSK1287544]	52
CN(c1ccc(NC(=O)Nc2cc(C(F)(F)F)ccc2F)cc1)c1ccnc(Nc2ccc(S(N)(=O)=O)cc2)n1 [GW809893]	11
Nc1n[nH]c2cnc(-c3ccccc3)cc12 [SB-642124]	8
